Consider the following molecules; for each one, report its log10 IC50.
test system: CaCo-2 colon carcinoma; assay: Cytotoxicity against CaCo-2 cells by MTT assay; format: cell-based; conditions: Homo sapiens, 48 h drug exposure, 0.01-40 μM, read-out: IC50 (μM) 48 h
Log scale reminder: IC50 in µM, then log10 taken.

Reference set, count: 4
O=C1c2cccc3cccc(c23)C(=O)N1CCCNCCCCCCCCCCNCCCN1C(=O)c2cccc3cccc(c23)C1=O : -0.44
O=C1c2cccc3cccc(c23)C(=O)N1CCCNCCCCCCCCCNCCCN1C(=O)c2cccc3cccc(c23)C1=O : -0.17
O=C1c2cccc3cccc(c23)C(=O)N1CCCNCCCCCCCCNCCCN1C(=O)c2cccc3cccc(c23)C1=O : 0.51
O=C1c2cccc3cccc(c23)C(=O)N1CCCNCCCCCNCCCN1C(=O)c2cccc3cccc(c23)C1=O : 0.81

Record request: log10 IC50 value, item "O=C1c2cccc3cccc(c23)C(=O)N1CCCNCCCCCCCCCCCCNCCCN1C(=O)c2cccc3cccc(c23)C1=O"
0.43

----------
tested on: Leishmania infantum promastigotes; test: Growth of luciferase-expressing promastigotes (luciferase assay); assay type: cell-based; conditions: Leishmania infantum; promastigote, unit inferred; read-out: IC50±SD promastigote
PROPERTY: pIC50
One number for each entry, as −log10 of the molar value.

O=C1c2cccc3cccc(c23)C(=O)N1CCCNCCCNCCCNCCCN1C(=O)c2cccc3cccc(c23)C1=O : 5.96
O=C1c2cccc3cccc(c23)C(=O)N1CCCNCCCCNCCCNCCCN1C(=O)c2cccc3cccc(c23)C1=O : 5.73
O=C1c2cccc3cccc(c23)C(=O)N1CCCNCCCCCCCCCNCCCN1C(=O)c2cccc3cccc(c23)C1=O : 5.68

List the reported pIC50 of each molecule below.
1. O=C1c2cccc3cccc(c23)C(=O)N1CCCNCCCCNCCCN1C(=O)c2cccc3cccc(c23)C1=O
2. O=C1c2cccc3cccc(c23)C(=O)N1CCCNCCNCCNCCCN1C(=O)c2cccc3cccc(c23)C1=O

1. 6.40
2. 6.02

----------
tested on: CaCo-2 colon carcinoma; experiment: Cytotoxicity against CaCo-2 cells by MTT assay; assay type: cell-based; settings: Homo sapiens, 24 h drug exposure, 0.01-40 μM, read-out: IC50 (μM) 24 h
Field 'label' (enum: rule met / rule not met). Set to rule met when IC50 is strictly under 3 µM; else rule not met.

Reference set (2 entries):
O=C1c2cccc3cccc(c23)C(=O)N1CCCNCCCCCCCCCNCCCN1C(=O)c2cccc3cccc(c23)C1=O : rule not met
O=C1c2cccc3cccc(c23)C(=O)N1CCCNCCCCCCCCCCNCCCN1C(=O)c2cccc3cccc(c23)C1=O : rule met

Threshold test, IC50 < 3 µM: "O=C1c2cccc3cccc(c23)C(=O)N1CCCNCCCNCCCNCCCN1C(=O)c2cccc3cccc(c23)C1=O"
rule not met

Threshold test, IC50 < 3 µM: "O=C1c2cccc3cccc(c23)C(=O)N1CCCNCCCCCCCNCCCN1C(=O)c2cccc3cccc(c23)C1=O"
rule not met

Threshold test, IC50 < 3 µM: "O=C1c2cccc3cccc(c23)C(=O)N1CCCNCCCCCCCCNCCCN1C(=O)c2cccc3cccc(c23)C1=O"
rule not met

----------
Tested on: CaCo-2 colon carcinoma
Assay: Cytotoxicity against CaCo-2 cells by MTT assay
Type: cell-based
Details: Homo sapiens, 24 h drug exposure, 0.01-40 μM, read-out: IC50 (μM) 24 h
Protocol: Cytotoxity was evaluated for CaCo-2 colon carcinoma using the MTT assay with protocols appropriate for the individual test system.^11,13 CaCo-2 cells were maintained in Earle's Minimum Essential Medium (Sigma), supplemented with 10% fetal calf serum (Biosera), 2 mM L-glutamine (Sigma), 1% non-essential amino acids (Sigma), 100 IU mL^−1 penicillin and 100 μg mL^−1 streptomycin (Sigma). […]
Consider the following compounds; for each one, report its log10(IC50).
Log scale reminder: IC50 in µM, then log10 taken.

Reference set, count: 4
O=C1c2cccc3cccc(c23)C(=O)N1CCCNCCNCCNCCCN1C(=O)c2cccc3cccc(c23)C1=O [BNIPDeta, Bisnaphthalimidopropyldietiltriamine] : 1.34
O=C1c2cccc3cccc(c23)C(=O)N1CCCNCCCCCCCCCCCCNCCCN1C(=O)c2cccc3cccc(c23)C1=O [BNIPDadod, Bisnaphthalimidopropyldiaminododecane] : 0.65
O=C1c2cccc3cccc(c23)C(=O)N1CCCNCCCCCNCCCN1C(=O)c2cccc3cccc(c23)C1=O [BNIPDapen, Bisnaphthalimidopropyldiaminopentane] : 1.04
O=C1c2cccc3cccc(c23)C(=O)N1CCCNCCCCCCNCCCN1C(=O)c2cccc3cccc(c23)C1=O [BNIPDahex, Bisnaphthalimidopropyldiaminohexane] : -0.19

Record request: log10(IC50) value, item O=C1c2cccc3cccc(c23)C(=O)N1CCCNCCCCNCCCNCCCN1C(=O)c2cccc3cccc(c23)C1=O [BNIPSpd, Bisnaphthalimidopropylespermidine]
-0.82
